Values were extracted from patent US20160346249A1.

- PROTOCOL: Rat developmental toxicity study with toxicokinetics
- Assay type: in vivo
- EXPERIMENTAL SETUP: female, Crl:CD(SD)IGS BR, rat, in vivo, po, 20 mg/kg/day, pregnant rats, 20 mg/kg/day, GD 6
MEASURED METRIC: Cmax (ng/mL)
Provide the reading as a plain figure in ng/mL.

Query block: If you can, please state the reported Cmax value of `Clc1ccc([C@]23CNC[C@H]2C3)cc1Cl` .
Result block: 1970

* * *

- PROTOCOL: 2-week rat toxicology and toxicokinetic study
- Format: in vivo
- EXPERIMENTAL SETUP: female, Crl:CD (SD)IGS BR, rat, in vivo, po, 40 mg/kg/day, females, 40 mg/kg/day, Day 13
MEASURED METRIC: Tmax (h)
Provide the reading as a plain figure in h.

Query block: If you can, please state the reported Tmax value of `Clc1ccc([C@]23CNC[C@H]2C3)cc1Cl` .
Result block: 2

* * *

- PROTOCOL: Single dose 300 mg / 450 mg pharmacokinetic, safety and tolerability study in healthy male and female subjects
- EXPERIMENTAL SETUP: male, human, plasma, po, 450 mg
MEASURED METRIC: MRT inf (h)
Provide the reading as a plain figure in h.

Query block: If you can, please state the reported MRT inf value of `Clc1ccc([C@]23CNC[C@H]2C3)cc1Cl` .
Result block: 6.35

* * *

- PROTOCOL: Single rising oral dose (10-150 mg IR) safety, tolerance and pharmacokinetics in healthy male volunteers
- Type: in vivo, human
- EXPERIMENTAL SETUP: male, human, plasma, oral, 25 mg, Median; read-out: MRT0-∞
MEASURED METRIC: MRT inf

Query block: If you can, please state the reported MRT inf value of `Clc1ccc([C@]23CNC[C@H]2C3)cc1Cl` .
Result block: 4.65 h

* * *

- PROTOCOL: Single dose 300 mg / 450 mg pharmacokinetic, safety and tolerability study in healthy male and female subjects
- EXPERIMENTAL SETUP: female, human, plasma, po, 450 mg
MEASURED METRIC: concentration at 6 h (ng/mL)
Provide the reading as a plain figure in ng/mL.

Query block: If you can, please state the reported concentration at 6 h value of O=C1NCC2(c3ccc(Cl)c(Cl)c3)CC12 (stereo not shown) .
Result block: 2710

* * *

- PROTOCOL: Single dose 300 mg / 450 mg pharmacokinetic, safety and tolerability study in healthy male and female subjects
- EXPERIMENTAL SETUP: male, human, plasma, po, 450 mg
MEASURED METRIC: concentration at 8 h
Note: a bare number is incomplete; add the unit.

Query block: If you can, please state the reported concentration at 8 h value of O=C1NCC2(c3ccc(Cl)c(Cl)c3)CC12 (stereo not shown) [EB-10101] .
Result block: 2360 ng/mL

* * *

- PROTOCOL: Single-dose (25 mg) gender study in males and females (DOV-947-005)
- Type: in vivo, human
- EXPERIMENTAL SETUP: female, human, in vivo; single oral dose 25 mg; Females (N = 38)
MEASURED METRIC: Cmax (ng/mL)
Provide the reading as a plain figure in ng/mL.

Query block: If you can, please state the reported Cmax value of Clc1ccc([C@]23CNC[C@H]2C3)cc1Cl [amitifadine] .
Result block: 291
